# subject.of.test: Ode levamisole nAChR (Ode-UNC-29:Ode-UNC-38:Ode-UNC-63:Ode-ACR-8) (Oesophagostomum dentatum, UniProt E5KIX9+L7MMZ7+V5J2B2+V5J336)
# Sequence (L7MMZ7 entry or part of it): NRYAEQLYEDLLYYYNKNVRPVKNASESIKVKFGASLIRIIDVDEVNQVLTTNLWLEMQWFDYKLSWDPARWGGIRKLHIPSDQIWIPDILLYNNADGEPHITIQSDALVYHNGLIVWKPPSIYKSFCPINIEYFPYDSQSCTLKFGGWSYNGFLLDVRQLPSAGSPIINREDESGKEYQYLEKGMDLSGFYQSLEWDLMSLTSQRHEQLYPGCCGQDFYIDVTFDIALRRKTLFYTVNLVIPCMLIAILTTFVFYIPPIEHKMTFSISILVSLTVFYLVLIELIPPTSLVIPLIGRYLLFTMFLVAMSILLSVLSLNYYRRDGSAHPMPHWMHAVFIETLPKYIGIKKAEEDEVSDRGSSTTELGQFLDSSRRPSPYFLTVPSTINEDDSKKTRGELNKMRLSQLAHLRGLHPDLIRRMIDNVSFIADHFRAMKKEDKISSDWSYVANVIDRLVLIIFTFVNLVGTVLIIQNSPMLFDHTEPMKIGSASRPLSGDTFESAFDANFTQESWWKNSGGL
# Sequence (V5J2B2 entry or part of it): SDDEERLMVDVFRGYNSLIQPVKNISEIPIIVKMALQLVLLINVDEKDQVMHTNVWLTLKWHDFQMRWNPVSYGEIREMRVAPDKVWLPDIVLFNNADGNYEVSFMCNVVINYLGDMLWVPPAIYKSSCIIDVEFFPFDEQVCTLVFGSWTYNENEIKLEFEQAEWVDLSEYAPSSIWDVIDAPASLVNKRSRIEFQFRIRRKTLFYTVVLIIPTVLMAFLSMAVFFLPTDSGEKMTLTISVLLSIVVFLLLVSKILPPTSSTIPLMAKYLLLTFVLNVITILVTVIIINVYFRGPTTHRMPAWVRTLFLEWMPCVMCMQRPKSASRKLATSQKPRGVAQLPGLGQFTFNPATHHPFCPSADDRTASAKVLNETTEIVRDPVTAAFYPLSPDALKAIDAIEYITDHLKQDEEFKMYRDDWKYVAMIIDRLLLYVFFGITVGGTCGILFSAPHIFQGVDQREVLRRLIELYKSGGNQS
# Sequence (E5KIX9 entry or part of it): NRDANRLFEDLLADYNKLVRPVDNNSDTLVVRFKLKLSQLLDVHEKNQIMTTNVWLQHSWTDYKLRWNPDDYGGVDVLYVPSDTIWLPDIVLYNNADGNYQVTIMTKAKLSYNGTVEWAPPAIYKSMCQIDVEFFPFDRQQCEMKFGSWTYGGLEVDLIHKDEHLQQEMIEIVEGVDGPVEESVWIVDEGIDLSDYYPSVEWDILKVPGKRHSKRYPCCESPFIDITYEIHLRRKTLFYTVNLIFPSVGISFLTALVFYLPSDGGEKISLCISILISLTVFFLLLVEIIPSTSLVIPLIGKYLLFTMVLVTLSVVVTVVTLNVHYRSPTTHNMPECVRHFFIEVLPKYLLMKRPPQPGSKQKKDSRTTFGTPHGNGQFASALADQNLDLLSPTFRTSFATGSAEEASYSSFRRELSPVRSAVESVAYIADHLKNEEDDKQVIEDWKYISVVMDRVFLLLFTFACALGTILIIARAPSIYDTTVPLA
# Sequence (V5J336 entry or part of it): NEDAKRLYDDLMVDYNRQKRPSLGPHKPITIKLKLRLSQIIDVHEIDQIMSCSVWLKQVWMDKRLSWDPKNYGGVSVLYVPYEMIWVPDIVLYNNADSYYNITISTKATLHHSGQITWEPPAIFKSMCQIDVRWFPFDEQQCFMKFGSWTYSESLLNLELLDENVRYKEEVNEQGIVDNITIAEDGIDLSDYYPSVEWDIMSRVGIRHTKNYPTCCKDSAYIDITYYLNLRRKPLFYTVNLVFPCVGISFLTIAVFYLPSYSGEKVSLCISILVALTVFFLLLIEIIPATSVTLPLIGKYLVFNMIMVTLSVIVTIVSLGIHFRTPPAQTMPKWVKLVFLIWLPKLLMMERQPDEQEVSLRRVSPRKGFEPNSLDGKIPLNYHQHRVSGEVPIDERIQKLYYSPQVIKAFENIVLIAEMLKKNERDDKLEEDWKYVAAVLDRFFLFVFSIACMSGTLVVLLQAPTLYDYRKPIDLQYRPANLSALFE
# measurement.description: Two-electrode voltage-clamp on Ode levamisole receptors expressed in Xenopus laevis oocytes
reported.metric: IC50 (µM)
Give the quantity in µM, number only.

What does the record list as IC50 for `C[C@](C#N)(COc1cc(C#N)ccc1C(F)(F)F)NC(=O)c1ccc(SC(F)(F)F)cc1` ?
5

====

# subject.of.test: Ode pyrantel/tribendimidine nAChR (Ode-UNC-29:Ode-UNC-38:Ode-UNC-63) (Oesophagostomum dentatum, UniProt E5KIX9+V5J2B2+V5J336)
# Sequence (V5J336 entry or part of it): as above
# Sequence (V5J2B2 entry or part of it): as the sequence (V5J2B2 entry or part of it) above
# Sequence (E5KIX9 entry or part of it): as the sequence (E5KIX9 entry or part of it) above
# measurement.description: Two-electrode voltage-clamp on Ode pyrantel/tribendimidine receptors expressed in Xenopus laevis oocytes
reported.metric: EC50
Give your result as the value with the unit written after it.

Report EC50 for `CC(=O)OCC[N+](C)(C)C` please.
11.3 µM
